# system.tested: T1, recombinant human CD3 (human CD3eg linker) (Homo sapiens, UniProt P07766+P09693)
# T1 construct: made in house; host or cells: FreeStyle293F
# protocol.details: Biacore T200 SPR affinity of Dual-Fab antibodies to human CD3
# Assay type: binding
# measurement.parameters: 25 degrees C, pH 7.4
Entries whose CD3 Koff is below 0.05 s⁻¹ take MET; entries at or above 0.05 s⁻¹ take NOT MET.

molecule	group
H1652L0943: affinity matured Dual-Fab variant, VH SEQ ID NO 99, VL SEQ ID NO 146 (antibody, V domains shown) VH: QVQLVESGGGLVQPGRSLRLSCAASGFVFSNVWFHWVRQAPGKGLEWVAQIKDYYNAYADYYAPSVEGRFTISRDDSKNSIYLQMNSLKTEDTAVYYCHYVHYASASTLLPAEGVDAWGQGTTVTVSS VL: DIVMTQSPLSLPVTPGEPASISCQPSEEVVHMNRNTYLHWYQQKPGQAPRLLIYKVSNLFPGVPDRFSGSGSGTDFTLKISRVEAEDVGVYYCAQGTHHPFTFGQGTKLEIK	NOT MET
H1550L0918: affinity matured Dual-Fab variant, VH SEQ ID NO 92, VL SEQ ID NO 144 (antibody, V domains shown) VH: QVQLVESGGGLVQPGRSLRLSCAASGFKFSNVWMHWVRQAPGKGLEWVAQIKDKYNAYAAYYAPSVKGRFTISRDDSKNSIYLQMNSLKTEDTAVYYCHYIHYASASTLLPAFGVDAWGQGTTVTVSS VL: DIVMTQSPLSLPVTPGEPASISCQPSQEVVHMNNVVYLHWYQQKPGQAPRLLIYKVSNRFPGVPDRFSGSGSGTDFTLKISRVEAEDVGVYYCAQGTSHPFTFGQGTKLEIK	MET
H2591L0581: affinity matured Dual-Fab variant, VH SEQ ID NO 101, VL SEQ ID NO 143 (antibody, V domains shown) VH: QVQLVESGGGLVQPGRSLRLSCAASGFKFSNVWFHWVRQAPGKGLEWVAQIKDYYNAYAGYYHPSVKGRFTISRDDSKNSIYLQMNSLKTEDTAVYYCHYVHYAAASTLLPAEGVDAWGQGTTVTVSS VL: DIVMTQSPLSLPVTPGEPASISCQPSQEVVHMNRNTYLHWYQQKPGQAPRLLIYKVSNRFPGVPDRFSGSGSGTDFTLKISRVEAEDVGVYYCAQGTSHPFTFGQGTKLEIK	NOT MET
H1610L0581: affinity matured Dual-Fab variant, VH SEQ ID NO 94, VL SEQ ID NO 143 (antibody, V domains shown) VH: QVQLVESGGGLVQPGRSLRLSCAASGFVFSNVWMHWVRQAPGKGLEWVAQIKDKWNAYAAYYAPSVKGRFTISRDDSKNSIYLQMNSLKTEDTAVYYCHYIHYASASTLLPAEGIDAWGQGTTVTVSS VL: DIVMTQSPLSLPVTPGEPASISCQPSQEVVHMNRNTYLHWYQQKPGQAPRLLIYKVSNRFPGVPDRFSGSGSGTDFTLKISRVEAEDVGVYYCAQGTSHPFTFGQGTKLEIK	MET
H1649L0943: affinity matured Dual-Fab variant, VH SEQ ID NO 97, VL SEQ ID NO 146 (antibody, V domains shown) VH: QVQLVESGGGLVQPGRSLRLSCAASGFVFSNVWFHWVRQAPGKGLEWVAQIKDKYNAYADYYAPSVKERFTISRDDSKNSIYLQMNSLKTEDTAVYYCHYVHYASASTLLPAEGVDAWGQGTTVTVSS VL: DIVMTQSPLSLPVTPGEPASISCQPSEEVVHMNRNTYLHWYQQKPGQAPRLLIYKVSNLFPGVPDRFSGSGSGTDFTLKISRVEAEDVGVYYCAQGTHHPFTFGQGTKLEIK	MET
H1643L0581: affinity matured Dual-Fab variant, VH SEQ ID NO 95, VL SEQ ID NO 143 (antibody, V domains shown) VH: QVQLVESGGGLVQPGRSLRLSCAASGFKFSNVWFHWVRQAPGKGLEWVAQIKDYYNAYAAYYAPSVKGRFTISRDDSKNSIYLQMNSLKTEDTAVYYCHYVHYASASTLLPAEGVDAWGQGTTVTVSS VL: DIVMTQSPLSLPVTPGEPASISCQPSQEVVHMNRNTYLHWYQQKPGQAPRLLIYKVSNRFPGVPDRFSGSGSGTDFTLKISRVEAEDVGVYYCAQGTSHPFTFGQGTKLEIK	MET
H2594L0581: affinity matured Dual-Fab variant, VH SEQ ID NO 102, VL SEQ ID NO 143 (antibody, V domains shown) VH: QVQLVESGGGLVQPGRSLRLSCAASGFKFSNVWFHWVRQAPGKGLEWVAQIKDYYNAYAGYYHPSVKGRFTISRDDSKNSIYLQMNSLKTEDTAVYYCHYVHYAAASQLLPAEGVDAWGQGTTVTVSS VL: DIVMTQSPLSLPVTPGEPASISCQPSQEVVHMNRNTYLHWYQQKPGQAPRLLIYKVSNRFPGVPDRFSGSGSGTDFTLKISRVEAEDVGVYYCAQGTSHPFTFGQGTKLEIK	NOT MET
